Field: z-score. Provide a value for each of the molecules that follow.
system name: NADPH oxidase 4 (Homo sapiens)
assay info: NOX4-dependent H2O2 signal modulators, primary screen, NOX inhibitor project, cell-based, HEK293-NOX4, tetracycline-induced, Amplex Red fluorescence (AID 1160)
experimental conditions: 45 min, higher = more signal, called active from +8 up or from −8 down
Quick one: just the number, no unit, thanks!

Req: Quick check: z-score on NADPH oxidase 4 (Homo sapiens), item COc1cc2c(cc1O)C(C1CC1)N(Cc1ccc([N+](=O)[O-])o1)CC2 (centres undefined) ?
Resp: -2.46

Req: Quick check: z-score on NADPH oxidase 4 (Homo sapiens), item `COCCOC(=O)N1C(=O)[C@@]2(c3ccccc31)[C@H](c1ccc(OCCO)cc1)N1[C@H](c3ccccc3)[C@H](c3ccccc3)OC(=O)[C@H]1[C@@H]2C(=O)N1CCN(c2ncccn2)CC1` ?
Resp: 0.262

Req: Quick check: z-score on NADPH oxidase 4 (Homo sapiens), item `CC(C)CNC(=O)[C@@H]1c2ccccc2C(=O)N(Cc2ccccc2)[C@H]1c1ccc(CO)cc1` ?
Resp: -1.24

Req: Quick check: z-score on NADPH oxidase 4 (Homo sapiens), item CCCCCCCCCCC(O)C1C=CC2C(=O)N(C)C(=O)C2N1N1CCCCC1 (centres undefined) ?
Resp: -1.94

----------
assay info: inhibitors of hydroxyurea-induced Chk1 phosphorylation, primary screen, imaging, HeLa, phospho-Chk1 nuclear intensity (AID 1187); further: test concentration not given here
experimental conditions: hydroxyurea-induced phospho-Chk1 immunofluorescence imaging, higher = more signal
Please mark 1 if the recorded z-score is equal to or greater than 0.2, and -1 if it falls below.

Req: Threshold query (z-score >= 0.2) on `CCCC=C(CCC)[C@@H](NS(=O)(=O)c1ccc(Cl)cc1)c1ccccc1`
Resp: 1

Req: Threshold query (z-score >= 0.2) on `COCCOC(=O)N1C(=O)[C@@]2(c3cc(C#Cc4ccc(OC)cc4)ccc31)[C@H](C(=O)N1CCCCCCC1)[C@H]1C(=O)O[C@H](c3ccccc3)[C@H](c3ccccc3)N1[C@@H]2c1ccccc1OCCO`
Resp: 1

Req: Threshold query (z-score >= 0.2) on `C=C(COC)/C(=C/C[C@H](OC(=O)c1ccncc1)c1cccc(OCCO)c1)c1cnc2ccccc2c1`
Resp: 1

Req: Threshold query (z-score >= 0.2) on `CCC[C@@H]1C=C(C(=O)OCC)[C@H](c2ccccc2)N1S(=O)(=O)c1ccc(C)cc1`
Resp: -1

Req: Threshold query (z-score >= 0.2) on `CN(C)CCCCNC(=O)[C@H]1C[C@H]2C(=O)N[C@@H](Cc3ccccc3)C(=O)N2[C@H]1c1cccc(OCCO)c1`
Resp: -1

Req: Threshold query (z-score >= 0.2) on `CCOC(=O)C1=C(C(=O)OCC)N(S(=O)(=O)CC[Si](C)(C)C)[C@H](c2ccccc2)CC1`
Resp: -1

Req: Threshold query (z-score >= 0.2) on `COC(=O)c1c(CC[C@@H](CO)NC(=O)N[C@@H](Cc2ccccc2)Cn2cc(-c3cncn3C)nn2)oc(C(C)=O)c1C(=O)OC`
Resp: -1

Req: Threshold query (z-score >= 0.2) on C[C@@H](OCc1ccccc1)C1NC(=O)[C@@]23C(=O)N[C@@H](Cc4ccccc4)C2[C@H](C)[C@@]2(C)O[C@H]2C3/C=C/C/C=C\CNC(=O)[C@H](Cc2ccccc2)NC1=O (stereo not given in full)
Resp: 1

Req: Threshold query (z-score >= 0.2) on `CN(C)CCCNC(=O)[C@@]1(Cc2ccccc2I)c2ccccc2C(=O)N(Cc2ccccc2)[C@H]1c1ccc(CO)cc1`
Resp: 1

Req: Threshold query (z-score >= 0.2) on `CC#CCO[Si](C#CCCCCCC)(C(C)C)C(C)C`
Resp: -1

Req: Threshold query (z-score >= 0.2) on `CCOC(=O)C1=CC[C@@H](c2ccccc2)N(S(=O)(=O)C[Si](C)(C)C)[C@H]1c1ccccc1`
Resp: 1

Req: Threshold query (z-score >= 0.2) on `O=C1O[C@@H](c2ccccc2)[C@@H](c2ccccc2)N2[C@@H](c3ccc(O)cc3)[C@]3(C(=O)Nc4ccc(C#CC5=CCCCC5)cc43)[C@@H](C(=O)N3CCCCCCC3)[C@H]12`
Resp: -1

Req: Threshold query (z-score >= 0.2) on CC(C)C[C@H]1NC(=O)[C@@]23C(=O)N[C@@H](Cc4ccccc4)C2[C@H](C)[C@@]2(C)O[C@H]2C3/C=C/C/C=C\CNC(=O)[C@@H]2CCCN2C1=O (stereo not given in full)
Resp: -1

Req: Threshold query (z-score >= 0.2) on `CC(C)[Si](C#CCCCC#N)(O[C@H](c1ccccc1)c1cn([C@H](C)c2ccccc2)nn1)C(C)C`
Resp: -1

Req: Threshold query (z-score >= 0.2) on N#Cc1ccc(C(O)C2C=CC3C(=O)N(c4ccccc4)C(=O)C3N2Nc2ccc([N+](=O)[O-])cc2)cc1 (stereo not given)
Resp: -1

Each recorded value in this set is attributed to PubChem BioAssay.
